Target: T1, recombinant human TfR-1, His-tagged (Sino Biological 11020-H07H) (human, UniProt P02786 89-760)
T1 construct: bought; His-tagged; also called hTfR1; hTfR-1
T1 sequence (P02786 89-760 limits assumed): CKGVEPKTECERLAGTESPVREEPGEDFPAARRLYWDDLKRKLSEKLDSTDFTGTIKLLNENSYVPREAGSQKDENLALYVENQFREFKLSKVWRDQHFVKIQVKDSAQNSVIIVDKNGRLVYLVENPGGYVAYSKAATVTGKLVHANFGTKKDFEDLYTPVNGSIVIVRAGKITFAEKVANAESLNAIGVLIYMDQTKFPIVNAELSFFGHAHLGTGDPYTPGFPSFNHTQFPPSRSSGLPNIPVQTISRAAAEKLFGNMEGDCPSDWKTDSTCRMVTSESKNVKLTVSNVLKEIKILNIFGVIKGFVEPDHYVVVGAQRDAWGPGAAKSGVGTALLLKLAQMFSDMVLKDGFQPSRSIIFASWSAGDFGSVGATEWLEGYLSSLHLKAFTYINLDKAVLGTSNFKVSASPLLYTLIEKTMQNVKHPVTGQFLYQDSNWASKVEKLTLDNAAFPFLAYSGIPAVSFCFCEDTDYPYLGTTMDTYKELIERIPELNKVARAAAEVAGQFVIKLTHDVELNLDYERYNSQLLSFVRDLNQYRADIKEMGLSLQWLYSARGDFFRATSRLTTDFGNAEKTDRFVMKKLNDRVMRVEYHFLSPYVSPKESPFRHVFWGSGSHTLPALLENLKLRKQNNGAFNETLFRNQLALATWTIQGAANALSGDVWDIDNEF
Assay: SPR, His-captured TfR1
Description: Detailed binding kinetic analyses were performed to gain a better understanding of the relationship between affinity and brain penetration of the Clone H variants. Biacore surface plasmon resonance (SPR) analysis using immobilized mouse and human TfR-1 was performed for the clones (Table 5). Binding kinetics of VNAR-Fcs was determined by surface plasmon resonance (Biacore T200, GE Healthcare). […] Sensorgrams were fitted and kinetic constants were determined using Biacore T200 Evaluation software. […]
assay-metric: kon (M⁻¹ s⁻¹)

- binder: "Clone H variant 10 VNAR-hFc (Fc fusion, not shown: a dimerising Fc or GST, also called clone H var; 10) ARVDQTPQTITKETGESLTINCVLRDSNCELSSTYWYRKKSGSTNEESISKGGRYVETVNSGSKSFSLRINDLVVEDSGTYRCNVQQFPSWFNGRYWCDVYGGGTAVTVNA"
  assay-value: 79900
- binder: "Clone H variant 2 VNAR-hFc (Fc fusion, not shown: a dimerising Fc or GST) ARVDQTPQTITKETGESLTINCVLRDSNCELSSTYWYRKKSGSTNEESISKGGRYVETVNSGSKSFSLRINDLVVEDSGTYRCNVQQFPSSWPFRYWCDVYGGGTAVTVNA"
  assay-value: 107000
- binder: "Clone H VNAR-hFc fusion (Fc fusion, not shown: a dimerising Fc or GST, bivalent VNAR-Fc) ARVDQTPQTITKETGESLTINCVLRDSNCELSSTYWYRKKSGSTNEESISKGGRYVETVNSGSKSFSLRINDLVVEDSGTYRCNVQQFPSSSNGRYWCDVYGGGTAVTVNA"
  assay-value: 301000
